List of melting point values.

Illustrative cases are given below, each with its answer.
* CN1CCN(c2cnn(C)c(=O)c2C=NO)CC1 | 168 to 169 °C
* COc1ccccc1N1CCN(CCCCCn2c(=O)[nH]c3cscc3c2=O)CC1 | 148 to 153 °C
* CC1(CC(O)(Cc2ccc(Cl)cc2Cl)c2cccnc2)OCCO1 (configuration not stated) | 136 to 137 °C

Task: Record request: melting point value, item O=C(Nc1cc(S(=O)(=O)N(CCO)CCO)sc1Cl)c1cnn2c(C(F)F)cc(-c3ccc(C(F)(F)F)cc3)nc12
Output: 216 °C

Task: Record request: melting point value, item C[C@@H](n1cnc2cccc(Cl)c2c1=O)[C@](O)(Cn1cncn1)c1ccc(F)cc1F
Output: 114 to 119 °C

Task: Record request: melting point value, item O=C(NCCCC(F)(F)F)Oc1ccc([N+](=O)[O-])cc1
Output: 118 to 120 °C

Task: Record request: melting point value, item CS(=O)c1ccc(C(=O)CCCCCC#N)cc1 (configuration not stated)
Output: 58.5 to 60.5 °C

Task: Record request: melting point value, item CNc1nc(C)c(-c2cccnc2)s1
Output: 152 to 153 °C
